Tested on: Rat Aorta Sample (constriction by KCl)
Test: Vasorelaxation activity in rat aorta sample: effect on constriction caused by potassium chloride (KCl)
Type: cell-based, Male Wister rats
Details: 1 μM; KCl (80 mM); rat aorta ring; read-out: constriction inhibitory ratio (%)
For each record, write down the corresponding inhibition at 1 µM.
Give bare numbers, in %.

Below are worked cases with known answers.
CC1(C)N=C(c2cccc[n+]2[O-])c2cc([N+](=O)[O-])ccc2O1 ... -8
CC1(C)N=C(c2cccc[n+]2[O-])c2cc(Br)c(Cl)cc2O1 ... -11
CC1(C)N=C(c2cccnc2)c2cc(Br)ccc2O1 ... -4
CC1(C)N=C(c2cccc[n+]2[O-])c2cc(Cl)c(Cl)cc2O1 ... -5

Task item: # input compound: "Cc1cc2c(cc1Br)C(c1cccc[n+]1[O-])=NC(C)(C)O2" ; wanted: its inhibition at 1 µM
Reply: -1

meta.source: patent US5270308A
